System Name: SARS-CoV-2 S Trimer (SARS-CoV-2, UniProt P0DTC2 16-1213)
Experimental Protocol: Octet BLI, IgG, avid
pKd: −log10 of the molar value.
# Lookup of reported pKd keyed by entry
Readout Kind: pKd

Binder: A-7 (antibody, V domains shown) VH: EVQLVESGAEVRKPGASVKVSCKASGYTFTFYYIHWVRQAPGQGLEWMGWISPISGATNYAQTFQGRVTMTRDTSITTAYMELSSLTSDDTAVYYCAREKYYDSSGSSDYWGQGTLVTVSS VL: QPVLTQPPSVSAAPGQNVTIFCSGSSSNIGNNYVSWYQQLPGPAPKLLIYENNKRPSGIPDRFSGSKSGTSATLGITGLQTGDEADYYCGTWESSLSAPRVFGSGTKLTVL
Result Number: 9.09

Binder: A-1 (antibody, V domains shown) VH: EVQLVESGGGVVQPGGSLRLSCAASGFAFSTYWMHWVRQAPGKGLVWVSRINGDGSGTNYADSVKGRFTISRDNAKSTLYLQMNSLRTEDTAVYYCTRTAGRGAYDFGRFDPWGQGTLVTVSS VL: DIVLTQTPLSLPVTPGEPASISCRSSQSLLHSNGYNYLDWYLQKAGQSPQLLVFLGSNRASGVPDRFSGSASGTDFTLKISRVEAEDVGVYYCMQALQIPITFGQGTRLEIK
Result Number: 9.06

Binder: A-5 (antibody, V domains shown) VH: QVQLVESGGGLIQPGESLRLSCAASEFIVSRNYMSWVRQAPGKGLEWVSVIYSGGNTYYADSVKGRFTISRDNSKNTLYLQMNSLRAEDTAVYYCARDLRGPGCFDFWGQGTTVTVSS VL: DIQVTQSPSSLSASVGDRVTITCQASQDISNFLNWYQQKPGKAPKLLIYDASNLETGVPSRFSASGSGTEFTFTISSLQPEDIATYYCQQYDNLRVTFGGGTKLEIK
Result Number: 8.62
